Reported selectivity ratio values follow for various molecules
test: Selectivity index, ratio of IC50 for human HFF-1 cells to human PC-3 cells; type: toxicity; conditions: HFF-1 cells and PC-3 cells, read-out: Ratio IC50

[
  {
    "COMPOUND": "OC[C@@H](O)[C@@H](O)[C@@H](O)c1nc2c3cccnc3c3ncccc3c2[nH]1",
    "selectivity ratio": "> 13.5"
  },
  {
    "COMPOUND": "OC[C@H](O)[C@@H](O)[C@H](O)c1nc2c3cccnc3c3ncccc3c2[nH]1",
    "selectivity ratio": "> 7.3"
  },
  {
    "COMPOUND": "OC[C@@H](O)[C@@H](O)[C@H](O)Cc1nc2c3cccnc3c3ncccc3c2[nH]1",
    "selectivity ratio": "> 17"
  }
]
